Each recorded value in this set is attributed to paper PMC4501720.

Tested on: whole blood cells of group 3 pigs vaccinated with BCG-pAg85A
Assay type: cell-based, pigs (Sus scrofa domestica)
Observation Type: IFN-γ levels, BCG / pAg85A animal number 4

275–294: synthetic overlapping peptide of mature Ag85A, aa 275–294 (KPDLQRALGATPNTGPAPQG; UniProt P9WQP3 318-337, looked up, fragment) :: <5 pg/mL
231–250: synthetic overlapping peptide of mature Ag85A, aa 231–250 (GFVRTSNIKFQDAYNAGGGH; UniProt P9WQP3 274-293, looked up, fragment) :: <5 pg/mL
131–150: synthetic overlapping peptide of mature Ag85A, aa 131–150 (SALTLAIYHPQQFVYAGAMS; UniProt P9WQP3 174-193, looked up, fragment) :: 868 pg/mL
171–190: synthetic overlapping peptide of mature Ag85A, aa 171–190 (AGGYKASDMWGPKEDPAWQR; UniProt P9WQP3 214-233, looked up, fragment) :: 22 pg/mL
61–80: synthetic overlapping peptide of mature Ag85A, aa 61–80 (YDQSGLSVVMPVGGQSSFYS; UniProt P9WQP3 104-123, looked up, fragment) :: 75 pg/mL

Task item: Give the reported IFN-γ levels, BCG / pAg85A animal number 4 for this substance. 91–108: 18-mer peptide spanning the sequence of Ag85B aa 91–108, used instead of Ag85A 91–110 (GCQTYKWETFLTSELPQW; UniProt P9WQP1 131-148, looked up, fragment)
Reply: 308 pg/mL

Task item: Give the reported IFN-γ levels, BCG / pAg85A animal number 4 for this substance. 121–140: synthetic overlapping peptide of mature Ag85A, aa 121–140 (AVVGLSMAASSALTLAIYHP; UniProt P9WQP3 164-183, looked up, fragment)
Reply: <5 pg/mL
